The reported measurements were obtained from BigSolDB 2.1.

details: in n-heptane, 308.84 K
Measured Metric: solubility (mole fraction)
Just the number, please, no unit after it.

Lookup result for COc1cc(CNC(=O)CCCCCCC(C)C)ccc1O ; measured solubility (mole fraction): 0.000422

---

conditions: in acetone, 305.69 K
Measured Metric: solubility (mole fraction)

Per the records, this compound ( COc1cc(CNC(=O)CCCCCCC(C)C)ccc1O ) has solubility (mole fraction) equal to 0.256

---

conditions: in n-hexane, 310.68 K
Measured Metric: solubility (mole fraction)
Please reply with the number alone, leaving off any unit.

Record COc1cc(CNC(=O)CCCCCCC(C)C)ccc1O . Reported solubility (mole fraction): 0.00034

---

conditions: in n-pentane, 300.43 K
Measured Metric: solubility (mole fraction)
Just the number, please.

Lookup result for COc1cc(CNC(=O)CCCCCCC(C)C)ccc1O ; measured solubility (mole fraction): 0.000142

---

conditions: in water, 325.03 K
Measured Metric: solubility (mole fraction)
Could you keep your reply to the number by itself?

// sample COc1cc(CNC(=O)CCCCCCC(C)C)ccc1O , its solubility (mole fraction) was 5.24e-05

---

settings: in ethyl acetate, 305.29 K
Measured Metric: solubility (mole fraction)
A bare number is all that is needed in reply.

Entry COc1cc(CNC(=O)CCCCCCC(C)C)ccc1O , solubility (mole fraction) reported as 0.342

---

details: in n-pentane, 301.54 K
Measured Metric: solubility (mole fraction)
# respond with the number and nothing more

The recorded solubility (mole fraction) for entry COc1cc(CNC(=O)CCCCCCC(C)C)ccc1O equals 0.000152

---

settings: in acetone, 308.78 K
Measured Metric: solubility (mole fraction)
I only need the number, thanks.

Recorded solubility (mole fraction) (compound COc1cc(CNC(=O)CCCCCCC(C)C)ccc1O ): 0.287

---

details: in ethyl acetate, 310.65 K
Measured Metric: solubility (mole fraction)
Provide a numeric answer; units are not to be included.

Consider COc1cc(CNC(=O)CCCCCCC(C)C)ccc1O . Its measured solubility (mole fraction) is 0.397

---

details: in n-heptane, 298.43 K
Measured Metric: solubility (mole fraction)
Answer field: number only, no words.

The measured solubility (mole fraction) associated with COc1cc(CNC(=O)CCCCCCC(C)C)ccc1O reads 0.000229

---

details: in n-heptane, 300.59 K
Measured Metric: solubility (mole fraction)
Could you respond with only the numeric value?

# solubility (mole fraction) of COc1cc(CNC(=O)CCCCCCC(C)C)ccc1O = 0.00026

---

conditions: in ethanol, 303.35 K
Measured Metric: solubility (mole fraction)
Simply state the number, no unit and no words.

Form: compound = COc1cc(CNC(=O)CCCCCCC(C)C)ccc1O ; solubility (mole fraction) = 0.196

---

details: in ethyl acetate, 307.69 K
Measured Metric: solubility (mole fraction)
Reply with the value as a number alone.

solubility (mole fraction) for COc1cc(CNC(=O)CCCCCCC(C)C)ccc1O is 0.369

---

conditions: in ethanol, 307.86 K
Measured Metric: solubility (mole fraction)
Please give only the number in your answer, with no unit.

COc1cc(CNC(=O)CCCCCCC(C)C)ccc1O has a reported solubility (mole fraction) of 0.233

---

conditions: in acetone, 299.49 K
Measured Metric: solubility (mole fraction)
# output: bare number, no unit

Looking up COc1cc(CNC(=O)CCCCCCC(C)C)ccc1O , I found its solubility (mole fraction) recorded as 0.193
